Where do these numbers come from? They come from PubChem BioAssay (NCI).

assay: NCI Yeast Anticancer Drug Screen. Data for the bub3 strain (AID 167); details: S. cerevisiae bub3 mutant strain, at 50.0 µM, stronger effect = higher value
The panel holds about 79,000 compounds, 15% with a hit somewhere; the sample as a whole holds those more often.
Measured Parameter: growth inhibition (%)
Give the quantity in %, number only.

>  <Compound>
O=C1OCCC2(CCN(Cc3ccccc3)CC2)O1

>  <growth inhibition [%]>
-1.45

$$$$
>  <Compound>
O=Cc1c(O)ccc2ccc3ccccc3c12

>  <growth inhibition [%]>
-7.7

$$$$
>  <Compound>
S=c1cc(-c2ccccc2)oc2ccccc12

>  <growth inhibition [%]>
4.85

$$$$
>  <Compound>
Cc1ccc(N=N/C(=N/NC(=O)c2ccccc2)c2ccc(N(CCC#N)CCC#N)cc2C)cc1

>  <growth inhibition [%]>
-3.25

$$$$
>  <Compound>
O=C1NC(=O)C(c2ccco2)N1 (configuration not stated)

>  <growth inhibition [%]>
-16.7

$$$$
>  <Compound>
NC(=O)[C@@H]1CCCN1C(=O)c1cccnc1

>  <growth inhibition [%]>
4.75

$$$$

Let us examine a further case.
Notebook: CNC(=O)c1ccccc1C(=O)c1ccccc1OC , growth inhibition read as 17.4

###

test: NCI Yeast Anticancer Drug Screen. Data for the cln2 rad14 strain (AID 165);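 note: 0% = growth equal to vehicle treated cultures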; conditions: S. cerevisiae cln2 rad14 strain, at 50.0 µM, stronger effect = higher value
This is part of a sample that, as a whole, favours compounds with a hit. Of some 79,000 tested, about 15% had one in any assay.
Recorded growth inhibition values for a group of compounds are listed next.
Give the quantity in %, number only.

Notebook: O=C1c2cc3c(cc2CC12Cc1ccc4c(c1C2=O)CCCC4)CCCC3 (stereo not given) , growth inhibition read as 3.6

Notebook: N#Cc1c(-c2ccco2)c2c(n(C3OC(CO)C(O)C(O)C3O)c1=S)CCCC2 (stereo not given) , growth inhibition read as -7.75

Notebook: CCOC(=O)C(=[N+]=[N-])C(O)C1OC(c2ccccc2)OCC1O (stereo not given) , growth inhibition read as 22.1

Notebook: COC(=O)CC1C(=O)OC23CCC1C2(C)CCC1C3CCC2CC(OC(C)=O)CCC21C (stereo not given) , growth inhibition read as 82

Notebook: CCOC(=O)/C=C(/O)CC(=O)OCC.[Cu+2] , growth inhibition read as -21

###

test: NCI Yeast Anticancer Drug Screen. Data for the mec2-1 strain (AID 157); conditions: S. cerevisiae mec2-1 strain, at 50.0 µM, stronger effect = higher value
About 79,000 compounds went through this panel and 15% of them were active in at least one assay; those are over-represented in the sample as a whole.
The threshold is inclusive: growth inhibition of exactly -20% counts as 1; values below receive 0.

Does CCCCCCC(O)Cc1ccccc1 (configuration not stated) have a reported growth inhibition of at least -20%?
1

Does CCOC(=O)c1c(C)c2c(n1C)CCC(CCC(C)=O)C2=O (configuration not stated) have a reported growth inhibition of at least -20%?
1

###

experiment: NCI Yeast Anticancer Drug Screen. Data for the mec2-1 strain (AID 157); conditions: S. cerevisiae mec2-1 strain, at 50.0 µM, stronger effect = higher value
The panel holds about 79,000 compounds, 15% with a hit somewhere; the sample as a whole holds those more often.
Recorded growth inhibition values for a group of molecules are listed next.
Give the quantity in %, number only.

The cases that follow already have their growth inhibition on record.
>  <Molecule>
CCOC(=O)COC(=O)C1C(C(N)=O)N(CC(=O)OCC)CCN1CC(=O)OCC (stereo unspecified)

>  <growth inhibition / %>
1.9

$$$$
>  <Molecule>
CCc1cc2c(cc1C(=O)/C=C\c1ccco1)C(C)(C)CCC2(C)C

>  <growth inhibition / %>
98.2

$$$$
>  <Molecule>
c1ccc(C2=C(c3ccccc3)CSSC2)cc1

>  <growth inhibition / %>
34.6

$$$$
>  <Molecule>
CCOC(=O)c1cn(CC)c2c(ccc3cnccc32)c1=O

>  <growth inhibition / %>
-18.4

$$$$
>  <Molecule>
N#CNC(N)=Nc1ccc(Cl)cc1

>  <growth inhibition / %>
7.5

$$$$

Let us examine a further case.
Notebook: COc1ccc(C(=O)c2c(C(=O)O)ccc3ccccc23)cc1 , growth inhibition read as 2.25
